# Test system: 624824-186-R-J3-PDC multicell spheroids, viability
# test.summary: Anticancer human tumor 624824-186-R-J3-PDC patient-derived colon adenocarcinoma cell line growth inhibition [PI3K]
# measurement.conditions: second compound 0.1 µM; first compound 10 µM; active compounds read low
measure.name: viability, T/C (%)

molecule="Cn1ncc(Cl)c1-c1cc(C(=O)NC(CN)Cc2cccc(F)c2)sc1Cl (stereo not drawn) + Cc1nc(NC(=O)N2CCCC2C(N)=O)sc1-c1ccnc(C(C)(C)C(F)(F)F)c1" measure_name="viability, T/C" observed=39
molecule="C[C@@H](NC(=O)c1ncnc(N)c1Cl)c1ncc(C(=O)Nc2cc(C(F)(F)F)c(Cl)cn2)s1 + CC(Nc1ncnc2nc[nH]c12)c1cc2cccc(Cl)c2c(=O)n1-c1ccccc1" measure_name="viability, T/C" observed=107
molecule="CC1(C)CCC(Nc2ncc(C(F)(F)F)c(-c3c[nH]c4c(P(C)(C)=O)c(C#N)ccc34)n2)CN1 (stereo not drawn) + CC(Nc1ncnc2nc[nH]c12)c1cc2cccc(Cl)c2c(=O)n1-c1ccccc1" measure_name="viability, T/C" observed=3.93

---

# System: 624824-186-R-J3-PDC multicell spheroids, viability
# test.summary: Anticancer human tumor 624824-186-R-J3-PDC cell line growth inhibition [PI3K];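 also: luminescent signal used as a stand-in for spheroid viability; spheroids exposed to agents for seven days before luminescence read; percent viability relative to DMSO vehicle control wells taken as 100%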
# measurement.conditions: second compound 0.316 µM; first compound 0.0316 µM; active compounds read low
Catalogue of viability, T/C readings, one per entry.
measure.name: viability, T/C

compound="C[C@@H](NC(=O)c1ncnc(N)c1Cl)c1ncc(C(=O)Nc2cc(C(F)(F)F)c(Cl)cn2)s1 + Cc1nc(NC(=O)N2CCCC2C(N)=O)sc1-c1ccnc(C(C)(C)C(F)(F)F)c1" system_tested="624824-186-R-J3-PDC multicell spheroids, viability" observed=101%
compound="C#Cc1c(F)ccc2cc(O)cc(-c3ncc4c(N5CC6CCC(C5)N6)nc(OCC56CCCN5CC(F)C6)nc4c3F)c12 (stereo unspecified) + CC(Nc1ncnc2nc[nH]c12)c1cc2cccc(Cl)c2c(=O)n1-c1ccccc1" system_tested="624824-186-R-J3-PDC multicell spheroids, viability" observed=88.4%
compound="CC1(C)CCC(Nc2ncc(C(F)(F)F)c(-c3c[nH]c4c(P(C)(C)=O)c(C#N)ccc34)n2)CN1 (stereo unspecified) + COc1c(OCCCN2CCOCC2)ccc2c3n(c(=NC(=O)c4cnc(N)nc4)nc12)CCN3" system_tested="624824-186-R-J3-PDC multicell spheroids, viability" observed=28.5%
compound="CC(C)n1nc(-c2ccc3oc(N)nc3c2)c2c(N)ncnc21 + COc1c(OCCCN2CCOCC2)ccc2c3n(c(=NC(=O)c4cnc(N)nc4)nc12)CCN3" system_tested="624824-186-R-J3-PDC multicell spheroids, viability" observed=31.5%
compound="Cn1ncc(Cl)c1-c1cc(C(=O)NC(CN)Cc2cccc(F)c2)sc1Cl (stereo unspecified) + CC(Nc1ccc2c(c1)OCCn1cc(N3C(=O)OCC3C(F)F)nc1-2)C(N)=O" system_tested="624824-186-R-J3-PDC multicell spheroids, viability" observed=100%
compound="Cn1nccc1Nc1nccc(-c2ccn(C(CO)c3ccc(Cl)c(F)c3)c(=O)c2)n1 (stereo unspecified) + CC(Nc1ccc2c(c1)OCCn1cc(N3C(=O)OCC3C(F)F)nc1-2)C(N)=O" system_tested="624824-186-R-J3-PDC multicell spheroids, viability" observed=105%
compound="Cn1nccc1Nc1nccc(-c2ccn(C(CO)c3ccc(Cl)c(F)c3)c(=O)c2)n1 (stereo unspecified) + CC(Nc1ncnc2nc[nH]c12)c1cc2cccc(Cl)c2c(=O)n1-c1ccccc1" system_tested="624824-186-R-J3-PDC multicell spheroids, viability" observed=89.7%
compound="CC(C)NCC(C(=O)N1CCN(c2ncnc3c2C(C)CC3O)CC1)c1ccc(Cl)cc1 (stereo unspecified) + CC(Nc1ccc2c(c1)OCCn1cc(N3C(=O)OCC3C(F)F)nc1-2)C(N)=O" system_tested="624824-186-R-J3-PDC multicell spheroids, viability" observed=96.2%
compound="CC(=O)c1c(C)c2cnc(Nc3ccc(N4CCNCC4)cn3)nc2n(C2CCCC2)c1=O + CC(Nc1ccc2c(c1)OCCn1cc(N3C(=O)OCC3C(F)F)nc1-2)C(N)=O" system_tested="624824-186-R-J3-PDC multicell spheroids, viability" observed=108%
compound="C=CC(=O)N1CCN(c2nc(=O)n(-c3c(C)ccnc3C(C)C)c3nc(-c4c(O)cccc4F)c(F)cc23)C(C)C1 (stereo unspecified) + CC(Nc1ccc2c(c1)OCCn1cc(N3C(=O)OCC3C(F)F)nc1-2)C(N)=O" system_tested="624824-186-R-J3-PDC multicell spheroids, viability" observed=90.1%
compound="CC1(C)CCC(Nc2ncc(C(F)(F)F)c(-c3c[nH]c4c(P(C)(C)=O)c(C#N)ccc34)n2)CN1 (stereo unspecified) + CC(Nc1ccc2c(c1)OCCn1cc(N3C(=O)OCC3C(F)F)nc1-2)C(N)=O" system_tested="624824-186-R-J3-PDC multicell spheroids, viability" observed=81.8%

---

# Tested on: 624824-186-R-J3-PDC multicell spheroids, viability
# test.summary: Anticancer human tumor 624824-186-R-J3-PDC cell line growth inhibition [PI3K];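 also: luminescent signal used as a stand-in for spheroid viability; spheroids exposed to agents for seven days before luminescence read; percent viability relative to DMSO vehicle control wells taken as 100%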
# measurement.conditions: second compound 0.00316 µM; first compound 1 µM; active compounds read low
measure.name: viability, T/C (%)

compound="C=CC(=O)N1CCN(c2nc(=O)n(-c3c(C)ccnc3C(C)C)c3nc(-c4c(O)cccc4F)c(F)cc23)C(C)C1 (stereo not given) + CC(Nc1ccc2c(c1)OCCn1cc(N3C(=O)OCC3C(F)F)nc1-2)C(N)=O" unit_annotation=% observed=88.2
compound="CCN1CCN(Cc2ccc(Nc3ncc(F)c(-c4cc(F)c5nc(C)n(C(C)C)c5c4)n3)nc2)CC1 + CC(Nc1ccc2c(c1)OCCn1cc(N3C(=O)OCC3C(F)F)nc1-2)C(N)=O" unit_annotation=% observed=97.1
compound="CC1(C)CCC(Nc2ncc(C(F)(F)F)c(-c3c[nH]c4c(P(C)(C)=O)c(C#N)ccc34)n2)CN1 (stereo not given) + CC(Nc1ccc2c(c1)OCCn1cc(N3C(=O)OCC3C(F)F)nc1-2)C(N)=O" unit_annotation=% observed=89.6
compound="CC1(C)CCC(CN2CCN(c3ccc(C(=O)NS(=O)(=O)c4ccc(NCC5CCOCC5)c([N+](=O)[O-])c4)c(Oc4cnc5[nH]ccc5c4)c3)CC2)=C(c2ccc(Cl)cc2)C1 + COc1c(OCCCN2CCOCC2)ccc2c3n(c(=NC(=O)c4cnc(N)nc4)nc12)CCN3" unit_annotation=% observed=102
compound="CNC(=O)c1ccc(N2C(=S)N(c3ccc(C#N)c(C(F)(F)F)c3)C(=O)C2(C)C)cc1F + COc1c(OCCCN2CCOCC2)ccc2c3n(c(=NC(=O)c4cnc(N)nc4)nc12)CCN3" unit_annotation=% observed=103
compound="CC1(C)CCC(CN2CCN(c3ccc(C(=O)NS(=O)(=O)c4ccc(NCC5CCOCC5)c([N+](=O)[O-])c4)c(Oc4cnc5[nH]ccc5c4)c3)CC2)=C(c2ccc(Cl)cc2)C1 + CC(Nc1ccc2c(c1)OCCn1cc(N3C(=O)OCC3C(F)F)nc1-2)C(N)=O" unit_annotation=% observed=90.9
compound="CC1(C)CCC(Nc2ncc(C(F)(F)F)c(-c3c[nH]c4c(P(C)(C)=O)c(C#N)ccc34)n2)CN1 (stereo not given) + COc1c(OCCCN2CCOCC2)ccc2c3n(c(=NC(=O)c4cnc(N)nc4)nc12)CCN3" unit_annotation=% observed=85
compound="CC(C)NCC(C(=O)N1CCN(c2ncnc3c2C(C)CC3O)CC1)c1ccc(Cl)cc1 (stereo not given) + CC(Nc1ccc2c(c1)OCCn1cc(N3C(=O)OCC3C(F)F)nc1-2)C(N)=O" unit_annotation=% observed=73.1
compound="CC(C)NCC(C(=O)N1CCN(c2ncnc3c2C(C)CC3O)CC1)c1ccc(Cl)cc1 (stereo not given) + COc1c(OCCCN2CCOCC2)ccc2c3n(c(=NC(=O)c4cnc(N)nc4)nc12)CCN3" unit_annotation=% observed=76.1
compound="C[C@@H](NC(=O)c1ncnc(N)c1Cl)c1ncc(C(=O)Nc2cc(C(F)(F)F)c(Cl)cn2)s1 + COc1c(OCCCN2CCOCC2)ccc2c3n(c(=NC(=O)c4cnc(N)nc4)nc12)CCN3" unit_annotation=% observed=103

---

# Test system: 624824-186-R-J3-PDC multicell spheroids, viability
# test.summary: Anticancer human tumor 624824-186-R-J3-PDC cell line growth inhibition [PI3K];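 also: luminescent signal used as a stand-in for spheroid viability; spheroids exposed to agents for seven days before luminescence read; percent viability relative to DMSO vehicle control wells taken as 100%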
# measurement.conditions: second compound 10 µM; first compound 3.16 µM; active compounds read low
Entries and their measured viability, T/C follow.
measure.name: viability, T/C

compound="CC1(C)CCC(Nc2ncc(C(F)(F)F)c(-c3c[nH]c4c(P(C)(C)=O)c(C#N)ccc34)n2)CN1 (stereo not drawn) + Cc1nc(NC(=O)N2CCCC2C(N)=O)sc1-c1ccnc(C(C)(C)C(F)(F)F)c1" observed=39%
compound="C[C@@H](NC(=O)c1ncnc(N)c1Cl)c1ncc(C(=O)Nc2cc(C(F)(F)F)c(Cl)cn2)s1 + Cc1nc(NC(=O)N2CCCC2C(N)=O)sc1-c1ccnc(C(C)(C)C(F)(F)F)c1" observed=29.6%
compound="CCCS(=O)(=O)Nc1ccc(F)c(C(=O)c2c[nH]c3ncc(-c4ccc(Cl)cc4)cc23)c1F + CC(Nc1ncnc2nc[nH]c12)c1cc2cccc(Cl)c2c(=O)n1-c1ccccc1" observed=56%
